B1: CPEB3 Ribozyme (parent)
chain: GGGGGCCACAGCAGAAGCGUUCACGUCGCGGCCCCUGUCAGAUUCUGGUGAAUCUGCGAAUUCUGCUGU

- Variants of: B1
- experiment: self-cleavage, relative activity (ratio to wild type); higher = more cleavage; co-transcriptional
metric: self-cleavage
Numbers only.

The examples below pair each entry with its known result.
[[record]]
variantspec = "U20G C33A"
readoutnumber = 0.135

[[record]]
variantspec = "C24G C45A"
readoutnumber = 0.485

[[record]]
variantspec = "G1U C18U"
readoutnumber = 0.104

[[record]]
variantspec = "G31A G50C"
readoutnumber = 0.84

[[record]]
variantspec = "C32A U55G"
readoutnumber = 0.451


// batch mode: one self-cleavage value per listed entry
1. G31U C57A
2. A13G U38G
3. C24G A42G

1: 0.208; 2: 0.149; 3: 0.404

// batch mode: one self-cleavage value per listed entry
1. U49G U62C
2. A40C G47A
3. C18U U38C
4. C6G A15C
5. C35U G48A
6. C33U G47A
7. U21A G58A

1. 0.923
2. 0.791
3. 0.694
4. 0.122
5. 1.01
6. 0.972
7. 0.898
